# credit: patent US11780832B2

System: Enterobacter cloacae species complex Elevated AmpC
method-summary: Synergistic activity: MIC in the presence of Avibactam
Format: cell-based
run-conditions: strain of row r20, in the presence of Avibactam @ 4 μg/mL
value-kind: MIC

Known results for compounds:
CC(C)(O/N=C(\C(=O)N[C@@H]1C(=O)N2C(C(=O)[O-])=C(C[n+]3ccccc3)CS[C@H]12)c1csc(N)n1)C(=O)O [Ceftazidime, ceftazidime, reference compound]: 0.03 µg/mL
Nc1nc(/C(=N/OC2(C(=O)O)CCOCC2)C(=O)N[C@H]2CON(C3(C(=O)O)C[C@H](N4C(=O)c5cc(O)c(O)cc5C4=O)C(=O)O3)C2=O)cs1 (stereo partly shown): <=0.008 μg/mL
Nc1nc(/C(=N/OC2(C(=O)O)CCOCC2)C(=O)N[C@H]2CON(C3(C(=O)O)C[C@H](N4C(=O)c5cc(O)c(O)nc5C4=O)C(=O)O3)C2=O)cs1 (stereo partly shown): <=0.008 μg/mL
Nc1nc(/C(=N/OC2(C(=O)O)CC2)C(=O)N[C@H]2CON(C3(C(=O)O)C[C@H](N4C(=O)c5cc(O)c(O)cc5C4=O)C(=O)O3)C2=O)ns1 (stereo partly shown): <=0.008 μg/mL

Supply reported MIC belonging to this compound: Nc1nc(/C(=N/OC2(C(=O)O)CCC(F)(F)CC2)C(=O)N[C@H]2CON(C3(C(=O)O)C[C@H](N4C(=O)c5cc(O)c(O)cc5C4=O)C(=O)O3)C2=O)cs1 (stereo partly shown)
<=0.008 μg/mL

Supply reported MIC belonging to this compound: Nc1nc(/C(=N/OC2(C(=O)O)CC2)C(=O)N[C@H]2CON(C3(C(=O)O)C[C@H](N4C(=O)c5cc(O)c(O)cc5C4=O)C(=O)O3)C2=O)cs1 (stereo partly shown)
<=0.008 μg/mL

Supply reported MIC belonging to this compound: Nc1nc(/C(=N/OC2(C(=O)O)CC2)C(=O)N[C@H]2CON(C3(C(=O)O)C[C@H](N4Cc5cc(O)c(O)cc5C4=O)C(=O)O3)C2=O)cs1 (stereo partly shown)
0.015 µg/mL

* * *

Please respond with reported log10 of MIC for every item in the list.
Tested on: Klebsiella pneumoniae SHV-12
method-summary: MIC, CLSI broth microdilution
Type: cell-based
run-conditions: SHV12, SHV-12, read-out: MIC
All values: log10 MIC [µg/mL].

Supply reported log10 of MIC belonging to this compound: Nc1nc(/C(=N/OC2(C(=O)O)CC3CCC(C2)O3)C(=O)N[C@H]2CON(C3(C(=O)O)C[C@H](N4C(=O)c5cc(O)c(O)cc5C4=O)C(=O)O3)C2=O)cs1 (stereo partly drawn)
-1.52

Supply reported log10 of MIC belonging to this compound: CC(C)(O/N=C(\C(=O)N[C@H]1CON(C2(C(=O)O)C[C@H](N3Cc4cc(O)c(O)cc4C3=O)C(=O)O2)C1=O)c1csc(N)n1)C(=O)O (stereo partly drawn)
-1.22

Supply reported log10 of MIC belonging to this compound: Nc1nc(/C(=N/OC2(C(=O)O)CCOCC2)C(=O)N[C@H]2CON(C3(C(=O)O)C[C@H](N4C(=O)c5cc(O)c(O)nc5C4=O)C(=O)O3)C2=O)cs1 (stereo partly drawn)
-1.22

Supply reported log10 of MIC belonging to this compound: Nc1nc(/C(=N/OC2(C(=O)O)COC2)C(=O)N[C@H]2CON(C3(C(=O)O)C[C@H](N4C(=O)c5cc(O)c(O)cc5C4=O)C(=O)O3)C2=O)cs1 (stereo partly drawn)
-1.52

Supply reported log10 of MIC belonging to this compound: Nc1nc(/C(=N/OC2(C(=O)O)CCC(F)(Cl)CC2)C(=O)N[C@H]2CON(C3(C(=O)O)C[C@H](N4C(=O)c5cc(O)c(O)cc5C4=O)C(=O)O3)C2=O)cs1 (stereo partly drawn)
-1.52

Supply reported log10 of MIC belonging to this compound: Nc1nc(/C(=N/OC2(C(=O)O)CCOCC2)C(=O)N[C@H]2CON(C3(C(=O)O)C[C@H](N4Cc5cc(O)c(O)cc5C4=O)C(=O)O3)C2=O)cs1 (stereo partly drawn)
-1.22

Supply reported log10 of MIC belonging to this compound: Nc1nc(/C(=N/OC2(C(=O)O)CC3CCC(C2)O3)C(=O)N[C@H]2CON(C3(C(=O)O)C[C@H](N4C(=O)c5cc(O)c(O)nc5C4=O)C(=O)O3)C2=O)cs1 (stereo partly drawn)
-0.92

Supply reported log10 of MIC belonging to this compound: Nc1nc(/C(=N/OC2(C(=O)O)CC2)C(=O)N[C@H]2CON(C3(C(=O)O)C[C@H](N4C(=O)c5cc(O)c(O)cc5C4=O)C(=O)O3)C2=O)ns1 (stereo partly drawn)
-1.52

Supply reported log10 of MIC belonging to this compound: Nc1nc(/C(=N/OC2(C(=O)O)CCC(Cl)(Cl)CC2)C(=O)N[C@H]2CON(C3(C(=O)O)C[C@H](N4C(=O)c5cc(O)c(O)cc5C4=O)C(=O)O3)C2=O)cs1 (stereo partly drawn)
-1.52

Supply reported log10 of MIC belonging to this compound: Nc1nc(/C(=N/OC2(C(=O)O)CC2)C(=O)N[C@H]2CON(C3(C(=O)O)C[C@H](N4Cc5cc(O)c(O)cc5C4=O)C(=O)O3)C2=O)cs1 (stereo partly drawn)
-1.22

Supply reported log10 of MIC belonging to this compound: Nc1nc(/C(=N/OC2(C(=O)O)CNC2)C(=O)N[C@H]2CON(C3(C(=O)O)C[C@H](N4C(=O)c5cc(O)c(O)cc5C4=O)C(=O)O3)C2=O)cs1 (stereo partly drawn)
-0.30

Supply reported log10 of MIC belonging to this compound: Nc1nc(/C(=N/OC2(C(=O)O)CCC2)C(=O)N[C@H]2CON(C3(C(=O)O)C[C@H](N4C(=O)c5cc(O)c(O)cc5C4=O)C(=O)O3)C2=O)cs1 (stereo partly drawn)
-1.52

Supply reported log10 of MIC belonging to this compound: CN1CCC(O/N=C(\C(=O)N[C@H]2CON(C3(C(=O)O)C[C@H](N4C(=O)c5cc(O)c(O)cc5C4=O)C(=O)O3)C2=O)c2csc(N)n2)(C(=O)O)CC1 (stereo partly drawn)
-0.92

Supply reported log10 of MIC belonging to this compound: Nc1nc(/C(=N/OC2(C(=O)O)CC3CCC(C2)O3)C(=O)N[C@H]2CON(C3(C(=O)O)C[C@H](N4Cc5cc(O)c(O)cc5C4=O)C(=O)O3)C2=O)cs1 (stereo partly drawn)
-0.60

* * *

value-kind: MIC (µg/mL)
Respond with the bare value in µg/mL.

Recall the reported MIC of Nc1nc(/C(=N/OC2(C(=O)O)CC2)C(=O)N[C@H]2CON(C3(C(=O)O)C[C@H](N4Cc5cc(O)c(O)cc5C4=O)C(=O)O3)C2=O)cs1 (some centres unmarked) when tested on Escherichia coli Isogenic TEM-10.
0.03

Recall the reported MIC of CC(C)(O/N=C(\C(=O)N[C@H]1CON(C2(C(=O)O)C[C@H](N3C(=O)c4cc(O)c(O)nc4C3=O)C(=O)O2)C1=O)c1csc(N)n1)C(=O)O (some centres unmarked) when tested on Escherichia coli Isogenic TEM-10.
0.0149

Recall the reported MIC of Nc1nc(/C(=N/OC2(C(=O)O)CC3CCC(C2)O3)C(=O)N[C@H]2CON(C3(C(=O)O)C[C@H](N4Cc5cc(O)c(O)cc5C4=O)C(=O)O3)C2=O)cs1 (some centres unmarked) when tested on Escherichia coli Isogenic TEM-10.
0.12

* * *

Tested on: Klebsiella pneumoniae CMY-DHA
method-summary: MIC against CMY-DHA producing strains, compound alone
Type: cell-based
run-conditions: row r32
value-kind: log10 of MIC (log10 of the value in µg/mL)
All values: log10 MIC [µg/mL].

Supply reported log10 of MIC belonging to this compound: Nc1nc(/C(=N/OC2(C(=O)O)CCOCC2)C(=O)N[C@H]2CON(C3(C(=O)O)C[C@H](N4C(=O)c5cc(O)c(O)nc5C4=O)C(=O)O3)C2=O)cs1 (stereo partly shown) [Cmpd 26]
0.60

Supply reported log10 of MIC belonging to this compound: CC(C)(O/N=C(\C(=O)N[C@@H]1C(=O)N2C(C(=O)[O-])=C(C[n+]3ccccc3)CS[C@H]12)c1csc(N)n1)C(=O)O [Ceftazidime, ceftazidime, reference compound]
1.20

Supply reported log10 of MIC belonging to this compound: Nc1nc(/C(=N/OC2(C(=O)O)CC2)C(=O)N[C@H]2CON(C3(C(=O)O)C[C@H](N4C(=O)c5cc(O)c(O)cc5C4=O)C(=O)O3)C2=O)ns1 (stereo partly shown) [Cmpd 18]
0.00

Supply reported log10 of MIC belonging to this compound: Nc1nc(/C(=N/OC2(C(=O)O)CC2)C(=O)N[C@H]2CON(C3(C(=O)O)C[C@H](N4Cc5cc(O)c(O)cc5C4=O)C(=O)O3)C2=O)cs1 (stereo partly shown) [Cmpd 28]
0.30

Supply reported log10 of MIC belonging to this compound: Nc1nc(/C(=N/OC2(C(=O)O)CC2)C(=O)N[C@H]2CON(C3(C(=O)O)C[C@H](N4C(=O)c5cc(O)c(O)cc5C4=O)C(=O)O3)C2=O)cs1 (stereo partly shown) [Cmpd 1]
0.00

Supply reported log10 of MIC belonging to this compound: Nc1nc(/C(=N/OC2(C(=O)O)CCOCC2)C(=O)N[C@H]2CON(C3(C(=O)O)C[C@H](N4C(=O)c5cc(O)c(O)cc5C4=O)C(=O)O3)C2=O)cs1 (stereo partly shown) [Cmpd 8]
0.00

Supply reported log10 of MIC belonging to this compound: Nc1nc(/C(=N/OC2(C(=O)O)CCC(F)(F)CC2)C(=O)N[C@H]2CON(C3(C(=O)O)C[C@H](N4C(=O)c5cc(O)c(O)cc5C4=O)C(=O)O3)C2=O)cs1 (stereo partly shown) [Cmpd 10]
-0.30
